# credit: paper PMC11760092

Exercise: state measured CC50 for each of the molecules provided.
Tested on: peritoneal macrophages from BALB/c mice
test-description: Cytotoxicity assay (MTT)
Format: cell-based
run-conditions: 72 h of incubation; MTT; interval in brackets
The answer is to be given in µM; state only the numeric part.

What does the record list as CC50 for O=S(=O)(F)Cc1ccccc1 [PMSF] ?
269

What does the record list as CC50 for Cc1ccc(S(=O)(=O)N[C@@H](CCCCN)C(=O)CCl)cc1 [TLCK] ?
104

====

Test system: L. amazonensis (RFP) amastigotes
test-description: Antiamastigote assay (RFP fluorescence, infected peritoneal macrophages)
Type: cell-based
run-conditions: Leishmania amazonensis, Peritoneal macrophage; 72 h of incubation; interval in brackets; read-out: Antileishmanial effect in Leishmania amazonensis IC50 Amastigote
value-type: IC50

What does the record list as IC50 for N=C(N)c1ccccc1 ?
> 200 µM

====

test-description: Cytotoxicity assay (MTT)
Assay type: cell-based, BALB/c mice
run-conditions: BALB/c, mouse, peritoneal macrophages; 72 h of incubation; MTT; interval in brackets; read-out: Peritoneal macrophages CC50
value-type: CC50 at 72 h (µM)
The answer is to be given in µM; state only the numeric part.

What does the record list as CC50 at 72 h for C[C@@H]1[C@H](O)[C@@H](C)/C=C/C=C/C=C/C=C/C=C/C=C/C=C/[C@H](O[C@@H]2O[C@H](C)[C@@H](O)[C@H](N)[C@@H]2O)C[C@@H]2O[C@](O)(C[C@@H](O)C[C@@H](O)[C@H](O)CC[C@@H](O)C[C@@H](O)CC(=O)O[C@H]1C)C[C@H](O)[C@H]2C(=O)O ?
21.8
